# credit: ChEMBL document CHEMBL1201862

- Test system: UACC-62
- TEST_DESCRIPTION: NCI tumour cell line growth inhibition, 48 h
Calls of active or inactive are those of the source. Rule as the data show it: active = GI50 up to about 1.1 µM and inactive = higher.
Classes to choose from: Yes (active), No (inactive)

compound=CSC1=Nc2ccccc2-c2nc(-c3ccccc3)cc(-c3ccccc3)c2C1 label=No
compound="N#Cc1cc([N+](=O)[O-])ccc1NC(=O)/C(=N\\NC(=O)c1ccncc1)C(c1cnc2ccc([N+](=O)[O-])cc2n1)[N+](=O)[O-] (stereo not drawn)" label=No
compound="O=C1C(CN2CCCCC2)CCCC1CN1CCCCC1 (stereo not drawn)" label=No
compound="CC(C)(Cl)C(Br)CC/C(=C/CCl)CBr.CC(C)(Cl)C(Br)CC/C(=C\\CCl)CBr (stereo not drawn)" label=No
compound="COc1nc2c(c(=O)[nH]1)N=C(c1ccccc1)CC(c1ccccc1)N2 (stereo not drawn)" label=No

Query: Lab log entry: `Nc1ccc(Oc2ccc(C3(c4ccc(Oc5ccc(N)c(O)c5)cc4)C4CC5C6CC7CC5C3C(C7)C6C4)cc2)cc1O` — outcome as called in the assay?
Result: No

Query: Lab log entry: `O=c1oc2ccc([N+](=O)[O-])cc2c(Nc2ccc3c(c2)S(=O)(=O)c2ccccc2O3)c1[N+](=O)[O-]` — outcome as called in the assay?
Result: No

Query: Lab log entry: COc1cc(C2C3=C(COC3=O)Oc3cc4c(cc32)OCO4)cc(OC)c1OC(C)=O (stereo not drawn) — outcome as called in the assay?
Result: Yes

====

- Test system: OVCAR-4
- TEST_DESCRIPTION: NCI tumour cell line growth inhibition, 48 h
Active and inactive are the calls of the source. No stated cut-off is given here; in the data, active = GI50 up to about 1.1 µM and inactive = higher.
I'd appreciate it if you could supply GI50 values for the items below.

Some solved cases for reference:
molecule=FC(F)(Sc1nc2ccccc2[nH]1)c1nc2ccccc2o1 test_value="> 100 µM (inactive)"
molecule=O=C(C(=C(I)I)c1ccccc1)c1ccccc1 test_value="39.9 µM (inactive)"
molecule="O=C1/C(=C/c2ccccc2[N+](=O)[O-])N=C(c2ccccc2)N1C1Nc2cc3c(cc2S1)NC(N1C(=O)/C(=C/c2ccccc2[N+](=O)[O-])N=C1c1ccccc1)S3 (configuration not stated)" test_value="53.5 µM (inactive)"

Dear reader, for each entry below, please note its GI50.
1. COc1ccc2c(c1)C(=O)C1CC(=O)CCC21 (configuration not stated)
2. CCN1CCCC(C#N)(c2ccccc2)CC1 (configuration not stated)
3. O=C1OC(c2ccccc2)=N/C1=C/NC(Cc1ccccc1)C(=O)O (configuration not stated)

Result:
> 100 µM (inactive)
> 100 µM (inactive)
> 100 µM (inactive)

Query: Look up GI50: O=C1/C(=C/C=C/c2ccccc2)CCC1CNc1ccccc1 (configuration not stated)
Result: 99.3 µM (inactive)

====

- System: NCI-H226
- TEST_DESCRIPTION: NCI tumour cell line growth inhibition, 48 h
Calls of active or inactive are those of the source. Rule as the data show it: active = GI50 up to about 1.1 µM and inactive = higher.
Classes to choose from: label 1 (active), label 0 (inactive)

Check out these entries, answers already filled in.
compound="CCN1C(=O)C(C)S/C1=N\\NC(=O)CSc1nc2ccccc2c(=O)n1CC (stereo unspecified)" label="label 0"
compound=O=[N+]([O-])c1cc(Cl)cc2cc(Br)cnc12 label="label 0"

Query: Lab log entry: COc1cccc(C2c3cc4c(cc3OC(N3CCOCC3)C2C)OCO4)c1 (stereo unspecified) — outcome as called in the assay?
Result: label 0

Query: Lab log entry: CCC1c2[nH]c3ccccc3c2C[C@H]2C(=O)N3CCC[C@H]3C(=O)N12 (stereo partly specified) — outcome as called in the assay?
Result: label 0

Query: Lab log entry: COc1cc(C(C)c2cc3c(cc2OCCOCCOc2cc4c(cc2C(C)c2cc(OC)c(OC)c(OC)c2)OCO4)OCO3)cc(OC)c1OC (stereo unspecified) — outcome as called in the assay?
Result: label 0

Query: Lab log entry: O=C(NC(Cc1ccc(Cl)cc1)C(=O)O)c1ccc(I)cc1 (stereo unspecified) — outcome as called in the assay?
Result: label 0

Query: Lab log entry: O=C1/C(=C/c2ccccc2[N+](=O)[O-])N=C(c2ccccc2)N1C1Nc2cc3c(cc2S1)NC(N1C(=O)/C(=C/c2ccccc2[N+](=O)[O-])N=C1c1ccccc1)S3 (stereo unspecified) — outcome as called in the assay?
Result: label 0

Query: Lab log entry: `O=c1oc2ccccc2c(-c2ccc(O)cc2)c1Oc1ccccc1` — outcome as called in the assay?
Result: label 0

====

- Test system: SW-620
- TEST_DESCRIPTION: NCI tumour cell line growth inhibition, 48 h
Active and inactive are the calls of the source. No stated cut-off is given here; in the data, active = GI50 up to about 1.1 µM and inactive = higher.
Classes to choose from: active, inactive

Check out these entries, answers already filled in.
compound="C=CCNC(=O)N(CCC)CCCC(NC(C)=O)C(=O)NCc1ccccc1 (centres undefined)" label=inactive
compound=CSc1cc(Cl)c(C)cc1S(=O)(=O)NC(=O)NNc1ccccn1 label=inactive
compound=Oc1cc(Br)cc2cccnc12 label=inactive
compound="CN1CC2=C(N=C(S)NC2c2ccccc2Cl)/C(=C/c2ccccc2Cl)C1 (centres undefined)" label=inactive

Query: Lab log entry: `NC1=C(O)c2cccc3cccc(c23)C1=O` — outcome as called in the assay?
Result: inactive

====

- Tested on: HOP-92
- TEST_DESCRIPTION: NCI tumour cell line growth inhibition, 48 h
Active and inactive are the calls of the source. Cut-off read from the data, not from the text of the source: active = GI50 up to about 1.1 µM and inactive = higher.
Classes to choose from: active, inactive

Check out these entries, answers already filled in.
compound=COc1ccc(Cc2c3cc(O)c([O-])cc3cc[n+]2C)cc1 label=inactive
compound="CCOC(=O)CCC1(C(=O)OCC)CCCCC1=O (centres undefined)" label=inactive
compound="CCOc1ccc(C2Oc3c(cccc3OC)C=C2[N+](=O)[O-])cc1OCC (centres undefined)" label=inactive
compound=COc1cc2c(OC)c3cc(C)oc(=O)c3c(O)c2c(O)c1-c1c(OC)cc2c(OC)c3cc(C)oc(=O)c3c(O)c2c1O label=inactive
compound=O=C(OCc1ccccc1)c1ccc(NCc2cc(O)ccc2O)cc1 label=active
compound="Cc1c(N2C(=O)C(Cl)C2/C=C/c2ccccc2)c(=O)n(-c2ccccc2)n1C (centres undefined)" label=inactive
compound=O=C(OCc1ccccc1)N1CCNCCNCCN(C(=O)OCc2ccccc2)CCNCC1 label=inactive
compound=Cc1n[nH]c(=O)n1/N=C/c1ccncc1 label=inactive

Next, consider the following compound.
Query: Lab log entry: `CC(C)CCNc1ncnc2[nH]ncc12` — outcome as called in the assay?
Result: inactive

====

- System: NCI-H226
- TEST_DESCRIPTION: NCI tumour cell line growth inhibition, 48 h
Activity calls are given as the source filed them. Cut-off read from the data, not from the text of the source: active = GI50 up to about 1.1 µM and inactive = higher.
Classes to choose from: active, inactive

Check out these entries, answers already filled in.
compound=O=c1[nH]/c(=C/c2ccc(OCc3ccccc3)cn2)c(=O)[nH]/c1=C/c1cccnc1 label=active
compound="OC1(c2ccc(Cl)cc2)c2ccc3ccccc3c2C2=N[C@H]3CCCC[C@@H]3N21 (stereo partly drawn)" label=inactive

Query: Lab log entry: `N=C(N)NC(=N)Nc1c(F)c(F)c(F)c(F)c1F` — outcome as called in the assay?
Result: inactive

====

- Test system: SW-620
- TEST_DESCRIPTION: NCI tumour cell line growth inhibition, 48 h
Calls of active or inactive are those of the source. Cut-off read from the data, not from the text of the source: active = GI50 up to about 1.1 µM and inactive = higher.
Classes to choose from: Yes = active, No = inactive

Check out these entries, answers already filled in.
compound=Cc1cccc(N2C(=O)C(=O)C(c3nc4ccccc4s3)C(=O)C2=O)c1C label=No
compound=CC(/C=N\NC(=S)N1CCCCC1)=N/NC(=S)N1CCCCC1 label=Yes
compound="CC(C)=NOC(=O)OC[C@H]1O[C@@H](n2cnc3c(N)ncnc32)C(O)C1O (some centres undefined)" label=No

Next, consider the following compound.
Query: Lab log entry: COc1cc(C)c(CC/C(C)=C/Cc2cc(O)ccc2O)c(C)c1C [PANICEIN A HYDROQUINONE] — outcome as called in the assay?
Result: No

====

- System: HOP-92
- TEST_DESCRIPTION: NCI tumour cell line growth inhibition, 48 h
The source made the active and inactive calls. No stated cut-off is given here; in the data, active = GI50 up to about 1.1 µM and inactive = higher.
Classes to choose from: active, inactive

compound=COc1cc2c(C)cc(O)cc2c2cc(O)c(C)cc12 label=inactive
compound="COC1=CC(=O)[C@@]2(C)C(C)[C@H](c3ccccc3)[C@H]2C1=O (stereo not given in full)" label=inactive
compound="C[C@]12CCC(N3CCCC3)CC1=CC[C@@H]1[C@@H]2CC[C@]2(C)C(O)[C@H](n3ccnc3)C[C@@H]12 (stereo not given in full)" label=inactive
compound="O=C(O)CNC(=O)C1NC(C(F)(F)F)(C(F)(F)F)OC1(C(F)(F)F)C(F)(F)F (stereo not given)" label=inactive
compound=COc1cc(Nc2nc3ccccc3nc2C(=O)O)cc(OC)c1OC label=inactive
compound=N#CC(C#N)=CSc1ccccc1 label=inactive
compound=O=C(O)c1c([N+](=O)[O-])cc(C(F)(F)F)cc1[N+](=O)[O-] label=inactive
compound="CC1=CC(=O)CC2(C)CCC(C(C)CC(=O)CC(C)C)CC12 (stereo not given)" label=inactive
compound=O=C(O)CN1CCNCCN(CP(=O)(O)O)CC1 label=inactive
compound="NCC1Nc2ccccc2[C@@H](O)C1O (stereo not given in full)" label=inactive

Next, consider the following compound.
Query: Lab log entry: `CCSc1nc(=S)n(-c2ccccc2)c(C)c1C(C)=O` — outcome as called in the assay?
Result: inactive
